Tested on: M. abscessus (ATCC 19977)
Test Method Notes: MIC by broth microdilution, M. abscessus in cation adjusted Mueller Hinton broth
Format: cell-based
Condition: Mycobacteroides abscessus, ATCC19977, 96 h; ATCC 19977; cation adjusted Mueller Hinton broth without growth supplement; 30° C., 4 days; read-out: MIC M. abscessus MH
Measured Metric: MIC (µg/mL)
Return type: number; implicit unit µg/mL.

CO[C@H]1/C=C/O[C@@]2(C)Oc3c(C)c(O)c4c(c3C2=O)C2=NC3(CCN(CC(C)C)CC3)NC2=C(NC(=O)/C(C)=C\C=C\[C@H](C)[C@H](O)[C@@H](C)[C@@H](O)[C@@H](C)[C@H](OC(=O)N2CCN(CCOCCO)CC2)[C@@H]1C)C4=O :: 4
CO[C@H]1/C=C/O[C@@]2(C)Oc3c(C)c(O)c4c(c3C2=O)C2=NC3(CCN(CC(C)C)CC3)NC2=C(NC(=O)/C(C)=C\C=C\[C@H](C)[C@H](O)[C@@H](C)[C@@H](O)[C@@H](C)[C@H](OC(=O)N2C[C@H]3CN(CC5CCCCC5)C[C@H]3C2)[C@@H]1C)C4=O :: 0.125
CO[C@H]1/C=C/O[C@@]2(C)Oc3c(C)c(O)c4c(c3C2=O)C2=NC3(CCN(CC(C)C)CC3)NC2=C(NC(=O)/C(C)=C\C=C\[C@H](C)[C@H](O)[C@@H](C)[C@@H](O)[C@@H](C)[C@H](OC(=O)N2CCC(Nc3cccnc3)CC2)[C@@H]1C)C4=O :: 4

// MIC lookup, key: "CO[C@H]1/C=C/O[C@@]2(C)Oc3c(C)c(O)c4c(c3C2=O)C2=NC3(CCN(CC(C)C)CC3)NC2=C(NC(=O)/C(C)=C\C=C\[C@H](C)[C@H](O)[C@@H](C)[C@@H](O)[C@@H](C)[C@H](OC(=O)N2CCN(c3nccs3)CC2)[C@@H]1C)C4=O"
0.5

Also "CO[C@H]1/C=C/O[C@@]2(C)Oc3c(C)c(O)c4c(c3C2=O)C2=NC3(CCN(CC(C)C)CC3)NC2=C(NC(=O)/C(C)=C\C=C\[C@H](C)[C@H](O)[C@@H](C)[C@@H](O)[C@@H](C)[C@H](OC(=O)N2CCCN(c3ccccn3)CC2)[C@@H]1C)C4=O" ?
1

What about this compound? "CO[C@H]1/C=C/O[C@@]2(C)Oc3c(C)c(O)c4c(c3C2=O)C2=NC3(CCN(CC(C)C)CC3)NC2=C(NC(=O)/C(C)=C\C=C\[C@H](C)[C@H](O)[C@@H](C)[C@@H](O)[C@@H](C)[C@H](OC(=O)N2CCN(CC3CCCCC3)CC2)[C@@H]1C)C4=O"
0.125

Then what about the compound "CO[C@H]1/C=C/O[C@@]2(C)Oc3c(C)c(O)c4c(c3C2=O)C2=NC3(CCN(CC(C)C)CC3)NC2=C(NC(=O)/C(C)=C\C=C\[C@H](C)[C@H](O)[C@@H](C)[C@@H](O)[C@@H](C)[C@H](OC(=O)N2CCC(NC(C)C)CC2)[C@@H]1C)C4=O" ?
2

How about "CO[C@H]1/C=C/O[C@@]2(C)Oc3c(C)c(O)c4c(c3C2=O)C2=NC3(CCN(CC(C)C)CC3)NC2=C(NC(=O)/C(C)=C\C=C\[C@H](C)[C@H](O)[C@@H](C)[C@@H](O)[C@@H](C)[C@H](OC(=O)N2CCN(CC(C)(C)C)CC2)[C@@H]1C)C4=O" ?
0.125

* * *

Entries with their measured MIC, system M. kansasii (ATCC 12478):
Only the number, expressed in ng/mL, is required.

Worked examples, 2 compounds total:
CO[C@H]1/C=C/O[C@@]2(C)Oc3c(C)c(O)c4c(c3C2=O)C2=NC3(CCN(CC(C)C)CC3)NC2=C(NC(=O)/C(C)=C\C=C\[C@H](C)[C@H](O)[C@@H](C)[C@@H](O)[C@@H](C)[C@H](OC(=O)N2CCN(C3CCCCC3)CC2)[C@@H]1C)C4=O [Compound 10] :: 0.2
CCCCN1CCC(NC(=O)O[C@H]2[C@H](C)[C@H](O)[C@H](C)[C@@H](O)[C@@H](C)/C=C/C=C(/C)C(=O)NC3=C4NC5(CCN(CC(C)C)CC5)N=C4c4c(c(O)c(C)c5c4C(=O)[C@@](C)(O/C=C/[C@H](OC)[C@H]2C)O5)C3=O)CC1 [Compound 30] :: 16

Dear colleague, I am looking for the recorded MIC of the following compound: CO[C@H]1/C=C/O[C@@]2(C)Oc3c(C)c(O)c4c(c3C2=O)C2=NC3(CCN(CC(C)C)CC3)NC2=C(NC(=O)/C(C)=C\C=C\[C@H](C)[C@H](O)[C@@H](C)[C@@H](O)[C@@H](C)[C@H](OC(=O)N2CCC(NC(C)C)CC2)[C@@H]1C)C4=O [Compound 63]
125

Same question for CO[C@H]1/C=C/O[C@@]2(C)Oc3c(C)c(O)c4c(c3C2=O)C2=NC3(CCN(CC(C)C)CC3)NC2=C(NC(=O)/C(C)=C\C=C\[C@H](C)[C@H](O)[C@@H](C)[C@@H](O)[C@@H](C)[C@H](OC(=O)NC2CCN(C3CCCCC3)CC2)[C@@H]1C)C4=O [Compound 77] please.
30

Try this compound next: CO[C@H]1/C=C/O[C@@]2(C)Oc3c(C)c(O)c4c(c3C2=O)C2=NC3(CCN(CC(C)C)CC3)NC2=C(NC(=O)/C(C)=C\C=C\[C@H](C)[C@H](O)[C@@H](C)[C@@H](O)[C@@H](C)[C@H](OC(=O)N2CCC3(CCN(CC5CCCCC5)CC3)CC2)[C@@H]1C)C4=O [Compound 72]
0.4

Do the same for CO[C@H]1/C=C/O[C@@]2(C)Oc3c(C)c(O)c4c(c3C2=O)C2=NC3(CCN(CC(C)C)CC3)NC2=C(NC(=O)/C(C)=C\C=C\[C@H](C)[C@H](O)[C@@H](C)[C@@H](O)[C@@H](C)[C@H](OC(=O)N2CCC(c3ccccc3)CC2)[C@@H]1C)C4=O [Compound 1] please
4

How about this compound: CO[C@H]1/C=C/O[C@@]2(C)Oc3c(C)c(O)c4c(c3C2=O)C2=NC3(CCN(CC(C)C)CC3)NC2=C(NC(=O)/C(C)=C\C=C\[C@H](C)[C@H](O)[C@@H](C)[C@@H](O)[C@@H](C)[C@H](OC(=O)N2C[C@H]3CN(CC5CCCCC5)C[C@H]3C2)[C@@H]1C)C4=O [Compound 67]
3
